molecular target: SARS-COV-2 RBD-MMH (SARS-COV-2 RBD extracellular domain with C-terminal myc-myc-hexahistidine tag) (SARS-CoV-2)
# key: entry, value: t½ at pH 6.0
Attribute Measured: t½ at pH 6.0 (min)

>>> assay_result("mAb14280 (antibody, V domains shown) VH: QVQLVQSGAEVKKPGASVRVSCKASGYTFTGNYIHWVRQAPGQGLEWMAWINPNSGGKNYAQKFQGRVTLTRDTSVNTAYMELSRLRSDDTAMYYCARDVNYNILTGPGGLWGQGTLVTVSS VL: QSALTQPPSASGSPGQSVTISCTGTSSDVGGYNFVSWYQQHPGKAPKLMIYEVSKRPSGVPDRFSGSKSGNTASLTVSGLQAEDEADYYCSSYAGSNNFVFGTGTKVTVLG")
0.6
>>> assay_result("mAb14256 (antibody, V domains shown) VH: QVQLQESGPGLVKPSETLSLTCTVSGGSISSHYWSWIRQPPGKGLEWIGYIYYSGSSNYNPSLKSRVTISVDTSKNQFSLKLNSVTAADTAVYYCARHYDILTGFDWFDPWGQGTLVTVSS VL: QSVLTQPPSVSGAPGQRVTISCTGSSSNIGTHYDVHWYQQLPGTAPKLLIYGNSNRPSGVPDRFSGSKSGTSASLAITGLQAEDEADYYCQSFDNSLTAPYVFGTGTKVTVLG")
1.2
